- Test system: A549/ATCC NSCLC
- protocol: NCI-60 one-dose screen, 48 h
- conditions.used: 10 µM unless noted
The panel holds about 83,000 compounds, 20% with a hit somewhere; the sample as a whole holds those more often. Calls of active or inactive are those of the source. The calls were made as follows: active = growth percent below 10; inactive = the rest.
Give one outcome, nothing more. List: active, inactive

Some solved cases for reference:
compound	classification
CCCCCCCCCCCC[n+]1ccc2ccccc2c1	active
Cc1cc(C(=O)c2ccc(Cl)cc2)ccc1O	inactive
OC(c1cc(C23CC4CC(CC(C4)C2)C3)nc2c(Cl)cc(Cl)cc12)C1CCCCN1 (stereo not drawn)	active
NC1=C(Br)C(=O)c2ncccc2C1=O	active
CCCCCCCCCCCC[n+]1ccccc1 (tested in a mixture with another compound)	active

Hi, sorry to bother you, what did the test record for CC(O)C(O)C(O)C(O)C(O)C(=O)NNc1ccccc1 (stereo not drawn) ?
inactive

Try this compound next: CCOc1cc(F)c([N+](=O)[O-])cc1[N+](=O)[O-]
inactive

Try this compound next: CN(C)c1ccc(/C=C/c2ccnc3ccccc23)cc1
inactive

Try this compound next: CCCCCCCCCCCCN1C(C)=CS/C1=C\C=C\c1scc(C)[n+]1CCCCCCCCCCCC
inactive
